- PROTOCOL_SUMMARY: Intrinsic clearance in human liver microsomes assessed as glucuronidation during phase 2 measured per mg of protein
READOUT: CLH

Some compounds with known CLH results, for comparison:
CCNc1[nH]c(=O)n(O)c(=O)c1C(=O)NCc1ccccc1 355 µL/min
CCNc1[nH]c(=O)n(O)c(=O)c1C(=O)NCc1ccc(C)c(F)c1 357 µL/min

Moving on to another compound below.
What the record says about CNc1[nH]c(=O)n(O)c(=O)c1C(=O)NCc1ccccc1 : CLH is 51 µL/min

* * *

- Test system: Human immunodeficiency virus 1
- PROTOCOL_SUMMARY: Antiviral activity against HIV1 3B infected in human CEM-SS cells assessed as reduction of virus-induced cytopathic effect at 10 uM after 6 days by MTS assay
- Assay type: functional
- Design: scale not given: the % may be the effect or the level left
READOUT: Activity (%)
// return numeric value only (unit: %, not printed)

Some compounds with known Activity results, for comparison:
CCNc1[nH]c(=O)n(O)c(=O)c1C(=O)NCCCl 5.1
CNc1[nH]c(=O)n(O)c(=O)c1C(=O)NCc1cccc(F)c1 100
CCNc1[nH]c(=O)n(O)c(=O)c1C(=O)NCc1cc(F)ccc1F 92
CCNc1[nH]c(=O)n(O)c(=O)c1C(=O)NCc1cc(F)cc(F)c1 100
CCNc1[nH]c(=O)n(O)c(=O)c1C(=O)NCCc1ccccc1 99

What the record says about CCNc1[nH]c(=O)n(O)c(=O)c1C(=O)NCc1ccc(C)c(F)c1 : Activity is 100

What the record says about CCNc1[nH]c(=O)n(O)c(=O)c1C(=O)NCc1ccc(F)c(F)c1 : Activity is 100

* * *

- PROTOCOL_SUMMARY: Intrinsic clearance in mouse liver microsomes assessed as glucuronidation during phase 2 measured per mg of protein
- Type: ADME, Microsome
Parameter threshold = 1000 µL/min/mg. Response is yes (1) when CLH meets or exceeds it, else no (0).

The examples below pair each entry with its known result.
CCNc1[nH]c(=O)n(O)c(=O)c1C(=O)NCc1cccc(Cl)c1F yes (1)
CCNc1[nH]c(=O)n(O)c(=O)c1C(=O)NCc1ccc(F)cc1 yes (1)
CCNc1[nH]c(=O)n(O)c(=O)c1C(=O)NCc1ccc(C)c(F)c1 yes (1)

Identify whether the reported CLH of the following compound is 1000 µL/min/mg or greater: CCNc1[nH]c(=O)n(O)c(=O)c1C(=O)NCc1ccccc1
no (0)

Identify whether the reported CLH of the following compound is 1000 µL/min/mg or greater: CNc1[nH]c(=O)n(O)c(=O)c1C(=O)NCc1ccccc1
no (0)

* * *

Below: a set of entries, each annotated with reported half-life.
- PROTOCOL_SUMMARY: Half life of the compound in DPBS
- Assay type: physicochemical

What the record says about CCNc1[nH]c(=O)n(O)c(=O)c1C(=O)NCc1cccc(Cl)c1F : half-life is > 24 h

* * *

- System: CEM-SS
- PROTOCOL_SUMMARY: Cytotoxicity against human CEM-SS cells assessed as cell death after 6 days by MTS assay
- Assay type: cell-based
- CONDITION_CONTEXT: 144 h
READOUT: CC50 (µM)
// return numeric value only (unit: µM, not printed)

CCNc1[nH]c(=O)n(O)c(=O)c1C(=O)NCc1ccc(F)c(F)c1 21
CCNc1[nH]c(=O)n(O)c(=O)c1C(=O)NCc1ccc(F)cc1 19
CCNc1[nH]c(=O)n(O)c(=O)c1C(=O)NCc1ccc(F)cc1F 47

What the record says about CCNc1[nH]c(=O)n(O)c(=O)c1C(=O)NCc1ccc(C)c(F)c1 : CC50 is 20

What the record says about CCNc1[nH]c(=O)n(O)c(=O)c1C(=O)NCc1ccc(Cl)c(F)c1 : CC50 is 19

What the record says about CCNc1[nH]c(=O)n(O)c(=O)c1C(=O)NCc1cccc(Cl)c1F : CC50 is 18

What the record says about CCNc1[nH]c(=O)n(O)c(=O)c1C(=O)NCc1ccccc1 : CC50 is 23

What the record says about CNc1[nH]c(=O)n(O)c(=O)c1C(=O)NCc1ccccc1 : CC50 is 58

* * *

Below: a set of entries, each annotated with reported CLH.
- PROTOCOL_SUMMARY: Intrinsic clearance in human liver microsomes during phase 1 measured per mg of protein
- Type: ADME, Microsome

Some molecules with known CLH results, for comparison:
CCNc1[nH]c(=O)n(O)c(=O)c1C(=O)NCc1ccccc1 < 0.1 µL/min/mg
CNc1[nH]c(=O)n(O)c(=O)c1C(=O)NCc1ccccc1 0.8 µL/min/mg
CCNc1[nH]c(=O)n(O)c(=O)c1C(=O)NCc1ccc(C)c(F)c1 < 0.1 µL/min/mg

What the record says about CCNc1[nH]c(=O)n(O)c(=O)c1C(=O)NCc1ccc(F)cc1 : CLH is < 0.1 µL/min/mg

What the record says about CCNc1[nH]c(=O)n(O)c(=O)c1C(=O)NCc1cccc(Cl)c1F : CLH is < 0.1 µL/min/mg

* * *

- ASSAYED_SYSTEM: Human immunodeficiency virus type 1 integrase (Human immunodeficiency virus 1)
- Sequence (Q7ZJM1 whole entry): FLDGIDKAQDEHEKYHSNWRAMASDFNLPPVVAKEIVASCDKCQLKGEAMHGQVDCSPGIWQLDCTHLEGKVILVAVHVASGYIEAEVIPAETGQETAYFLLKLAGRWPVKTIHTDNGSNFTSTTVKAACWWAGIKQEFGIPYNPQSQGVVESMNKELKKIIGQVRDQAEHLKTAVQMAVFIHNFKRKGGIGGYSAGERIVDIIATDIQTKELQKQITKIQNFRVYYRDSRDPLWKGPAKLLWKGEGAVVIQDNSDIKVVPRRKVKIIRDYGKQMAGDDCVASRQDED
- PROTOCOL_SUMMARY: Inhibition of HIV1 recombinant integrase expressed in Escherichia coli using [32P]-labeled oligonucleotide as substrate after 60 mins by strand transfer activity assay
Below: a set of entries, each annotated with reported IC50.
// return numeric value only (unit: nM, not printed)

CCNc1[nH]c(=O)n(O)c(=O)c1C(=O)NCc1ccc(F)c(F)c1 77

What the record says about CCCNc1[nH]c(=O)n(O)c(=O)c1C(=O)NCc1cccc(Cl)c1F : IC50 is 58

What the record says about CNc1[nH]c(=O)n(O)c(=O)c1C(=O)NCc1cccc(Cl)c1F : IC50 is 110

* * *

Below: a set of entries, each annotated with reported Activity.
- Tested on: CEM-SS
- PROTOCOL_SUMMARY: Cytotoxicity against human CEM-SS cells assessed as cell viability at 10 uM after 6 days by MTS assay
- Assay type: cell-based
- CONDITION_CONTEXT: 144 h
// return numeric value only (unit: %, not printed)

Some molecules with known Activity results, for comparison:
O=C(NCc1ccc(F)cc1)c1c2n(c(=O)n(O)c1=O)CCCN2 5.5
CCNc1c(C(=O)NCc2ccc(F)cc2)c(=O)n(O)c(=O)n1C 10
O=C(NCc1ccccc1)c1c(Nc2ccc(-c3ccccc3)cc2)[nH]c(=O)n(O)c1=O 13
CCNc1[nH]c(=O)n(O)c(=O)c1C(=O)Oc1ccccc1 100

What the record says about CCNc1[nH]c(=O)n(O)c(=O)c1C(=O)NCc1ccccc1 : Activity is 100

What the record says about CCNc1[nH]c(=O)n(O)c(=O)c1C(=O)NCc1ccc(F)c(F)c1 : Activity is 100

* * *

Below: a set of entries, each annotated with reported solubility.
- PROTOCOL_SUMMARY: Aqueous solubility of the compound in DPBS
- Assay type: physicochemical
- CONDITION_CONTEXT: buffer
// return numeric value only (unit: µM, not printed)

Some compounds with known solubility results, for comparison:
CCNc1[nH]c(=O)n(O)c(=O)c1C(=O)NCc1ccccc1 1091
CCNc1[nH]c(=O)n(O)c(=O)c1C(=O)NCc1ccc(C)c(F)c1 81
CNc1[nH]c(=O)n(O)c(=O)c1C(=O)NCc1ccccc1 138
CCNc1[nH]c(=O)n(O)c(=O)c1C(=O)NCc1ccc(F)cc1 150

Moving on to another compound below.
What the record says about CCNc1[nH]c(=O)n(O)c(=O)c1C(=O)NCc1cccc(Cl)c1F : solubility is 11

* * *

Below: a set of entries, each annotated with reported PPB.
- PROTOCOL_SUMMARY: Plasma protein binding in mouse
- Assay type: ADME, cell-free
// return numeric value only (unit: %, not printed)

Some compounds with known PPB results, for comparison:
CNc1[nH]c(=O)n(O)c(=O)c1C(=O)NCc1ccccc1 70.9
CCNc1[nH]c(=O)n(O)c(=O)c1C(=O)NCc1cccc(Cl)c1F 94

What the record says about CCNc1[nH]c(=O)n(O)c(=O)c1C(=O)NCc1ccc(F)cc1 : PPB is 86.5

What the record says about CCNc1[nH]c(=O)n(O)c(=O)c1C(=O)NCc1ccc(C)c(F)c1 : PPB is 95.9

What the record says about CCNc1[nH]c(=O)n(O)c(=O)c1C(=O)NCc1ccccc1 : PPB is 83.9

* * *

- PROTOCOL_SUMMARY: Half life in mouse plasma
- Format: ADME, cell-free
READOUT: t1/2

Some compounds with known t1/2 results, for comparison:
CCNc1[nH]c(=O)n(O)c(=O)c1C(=O)NCc1ccc(C)c(F)c1 > 24 h
CCNc1[nH]c(=O)n(O)c(=O)c1C(=O)NCc1ccccc1 > 24 h
CCNc1[nH]c(=O)n(O)c(=O)c1C(=O)NCc1cccc(Cl)c1F > 24 h
CNc1[nH]c(=O)n(O)c(=O)c1C(=O)NCc1ccccc1 > 24 h

What the record says about CCNc1[nH]c(=O)n(O)c(=O)c1C(=O)NCc1ccc(F)cc1 : t1/2 is > 24 h
